- System: NCI/ADR-RES ovarian
- Procedure Summary: NCI tumour cell line growth inhibition, 48 h
Measured Quantity: GI50

smiles_code=O=Cc1ncc(-c2ccc(C(F)(F)F)cc2)c(NC2CCCCCC2)n1 data_value="> 10 µM"
smiles_code=CCCCN(CCCC)c1cc(C(=O)CCCCCN)c2ccccc2n1 data_value="1.78 µM"
smiles_code=COc1ccc(C2=C(Br)C(=O)OC2)cc1Cl data_value="29.4 µM"

* * *

- Test system: SNB-19 CNS
- Procedure Summary: NCI tumour cell line growth inhibition, 48 h
Measured Quantity: TGI (µM)

compound=CCOC(=O)c1c(N2CCOCC2)[nH]c(=O)c(C(c2c(O)c(C(=O)OCC)c(N3CCOCC3)[nH]c2=O)C(C)C)c1O measured_quantity=TGI unit_annotation=µM sign_qualifier=> data_value=100
compound=CC(=O)O[C@@]12[C@@H]3O[C@@]4(O)C[C@]5(C)[C@H]6C[C@@](C(C)C)(O[C@H]5c5ccoc5)O[C@H]1[C@]6(C4)O[C@]2(O)C(C)=CC3(C)C measured_quantity=TGI unit_annotation=µM sign_qualifier=> data_value=100
compound=O=C1C(=O)c2ccccc2C=C1[N+](=O)[O-] measured_quantity=TGI unit_annotation=µM sign_qualifier=> data_value=100
compound="O=C1OC(C2Cc3cc4c(cc3C2=O)CCC4)c2ccccc21 (centres undefined)" measured_quantity=TGI unit_annotation=µM sign_qualifier=> data_value=100
compound=COc1cccc2c3cccc(OC)c3c3[nH]cnc3c12 measured_quantity=TGI unit_annotation=µM sign_qualifier== data_value=26.9
compound=COC(=O)/C=C1/OC(c2ccc(Br)cc2)=C(Br)C1=O measured_quantity=TGI unit_annotation=µM sign_qualifier== data_value=28.9
compound=O=C(/C=C/c1ccccc1Cl)c1ccc(O)cc1 measured_quantity=TGI unit_annotation=µM sign_qualifier== data_value=19.6
compound=CCCCCCCCC(=O)CCCCCCCCC(=O)O measured_quantity=TGI unit_annotation=µM sign_qualifier=> data_value=100
compound=CCOC(=O)c1c(NS(=O)(=O)c2ccc(Br)cc2)sc2c1CCCC2 measured_quantity=TGI unit_annotation=µM sign_qualifier== data_value=20.6
compound=Cc1cc(N2CCOCC2)nc(N(CCCNc2ccnc3cc(Cl)ccc23)Cc2ccc3c(c2)OCO3)n1 measured_quantity=TGI unit_annotation=µM sign_qualifier== data_value=35.7
compound=Cc1cc(=O)[nH]c(CNC(=O)c2cccc3ccccc23)n1 measured_quantity=TGI unit_annotation=µM sign_qualifier=> data_value=100
compound="O=S1c2ccccc2N=C(c2ccc3ccccc3c2)CC1c1ccccc1 (centres undefined)" measured_quantity=TGI unit_annotation=µM sign_qualifier== data_value=34.9
compound=Clc1ccc(N/N=C/c2ccccn2)nc1 measured_quantity=TGI unit_annotation=µM sign_qualifier=> data_value=100
compound=Cc1cc2c(cc1Cl)SC(NN(C)C)=NS2(=O)=O measured_quantity=TGI unit_annotation=µM sign_qualifier=> data_value=10

* * *

- Test system: SN12C renal
- Procedure Summary: NCI tumour cell line growth inhibition, 48 h
Measured TGI, listed per entry.
Measured Quantity: TGI

compound=COc1ccc2cc(-c3ccc(OC)c(OC)c3)c(=O)oc2c1 data_value="> 100 µM"
compound=CNC(=S)NNC(=O)c1c(C)nc2sccn12 data_value="> 100 µM"
compound=S=c1cn[nH]c2ccc(Br)cc12 data_value="> 100 µM"
compound=Nc1cccc(-c2nc3sccn3c2-c2ccnc(NCCCNS(=O)(=O)c3ccc(C(F)(F)F)cc3)n2)c1 data_value="> 100 µM"
compound="CC1=C(C(=O)OCCc2ccc([N+](=O)[O-])cc2)C(c2ccccc2C(F)(F)F)C(C(=O)OC(C)C)=C(C)N1 (stereo unspecified)" data_value="26.7 µM"
compound="COC(=O)C1=C2C3=C(C(=O)c4ccccc4C3=O)N(Cc3ccccc3)C2(OC(C)=O)C=CC1=O (stereo unspecified)" data_value="30.2 µM"
